biological target: BRD4 protein (Homo sapiens (Human)); test: BRD4 protein degradation inducing action in cancer cells (immunofluorescence, Operetta); assay type: cell-based; conditions: LNCaP cells, 6 hr treatment, fluorescence intensity
Doc: threshold 400 pM (exclusive). Items with DC50 beneath it return 1 (yes); others return 0 (no).

Threshold test, DC50 < 400 pM: COC(=O)C[C@@H]1N=C(c2ccc(-c3ccc(OCC(=O)N[C@H](C(=O)N4C[C@H](O)C[C@H]4C(=O)N[C@@H](C)c4ccc(-c5scnc5C)cc4)C(C)(C)C)c(CO)c3)cc2)c2c(sc(C)c2C)-n2c(C)nnc21 [Example 154]
0 (no)

Take the compound Cc1ncsc1-c1ccc([C@H](C)NC(=O)[C@@H]2C[C@@H](O)CN2C(=O)[C@@H](NC(=O)CCCCCc2ccc(C3=N[C@@H](C)c4nnc(C)n4-c4sc(C)c(C)c43)cc2)C(C)(C)C)cc1 [Example 193] and say whether its DC50 is less than 400 pM.
0 (no)

Is 400 pM strictly greater than the compound's reported DC50? compound: COC(=O)C[C@@H]1N=C(c2ccc(-c3ccc(C(=O)N[C@H](C(=O)N4C[C@H](O)C[C@H]4C(=O)N[C@@H](CO)c4ccc(-c5scnc5C)cc4)C(C)(C)C)cc3)cc2)c2c(sc(C)c2C)-n2c(C)nnc21 [Example 215]
1 (yes)

Please indicate whether the reported DC50 of COC(=O)C[C@@H]1N=C(c2ccc(N3CC[C@H](C(=O)NCCOc4ccc5oc(C(=O)N[C@H](C(=O)N6C[C@H](O)C[C@H]6C(=O)N[C@@H](C)c6ccc(-c7scnc7C)cc6)C(C)(C)C)cc5c4)C3)cc2)c2c(sc(C)c2C)-n2c(C)nnc21 [Example Compound 68] is strictly below 400 pM.
0 (no)

Strictly below 400 pM: is that where DC50 of COC(=O)C[C@@H]1N=C(c2ccc(-c3ccc(C(=O)N[C@H](C(=O)N4C[C@H](O)C[C@H]4C(=O)N[C@@H](C)c4ccc(-c5scnc5C)cc4)C(C)(C)C)cc3)cc2)c2c(sc(CO)c2C)-n2c(C)nnc21 [Example 209] sits?
1 (yes)

Threshold test, DC50 < 400 pM: COC(=O)C[C@@H]1N=C(c2ccc(-c3ccc(C(=O)N[C@@H](C)C(=O)N[C@H](C(=O)N4C[C@H](O)C[C@H]4C(=O)N[C@@H](C)c4ccc(-c5scnc5C)cc4)C(C)(C)C)cc3)cc2)c2c(sc(C)c2C)-n2c(C)nnc21 [Example Compound 91]
0 (no)

Dear colleague, could you confirm whether DC50 of Cc1ncsc1-c1ccc([C@H](C)NC(=O)[C@@H]2C[C@@H](O)CN2C(=O)[C@@H](NC(=O)COc2ccc(-c3ccc(C4=N[C@@H](C)c5nnc(C)n5-c5sc(C)c(C)c54)cc3)cc2)C(C)(C)C)cc1 [Example 33] falls below 400 pM? Thanks.
1 (yes)

Is DC50 of COC(=O)N(C)C1N=C(c2ccc(-c3ccc(OCC(=O)N[C@H](C(=O)N4C[C@H](O)C[C@H]4C(=O)N[C@@H](C)c4ccc(-c5scnc5C)cc4)C(C)(C)C)cc3)cc2)c2c(sc(C)c2C)-n2c(C)nnc21 (stereo partly shown) [Example 35] strictly below 400 pM?
0 (no)

In the record for COC(=O)C[C@@H]1N=C(c2ccc(N3CCc4cc(OCC(=O)N[C@H](C(=O)N5C[C@H](O)C[C@H]5C(=O)N[C@@H](C)c5ccc(-c6scnc6C)cc5)C(C)(C)C)ccc43)cc2)c2c(sc(C)c2C)-n2c(C)nnc21 [Example 151] , is DC50 less than 400 pM?
1 (yes)

Input COC(=O)C[C@@H]1N=C(c2ccc(-c3ccc(OCC(=O)N[C@H](C(=O)N4C[C@H](O)C[C@H]4C(=O)N[C@@H](C)c4ccc(-c5scnc5C)cc4)C(C)(C)C)nc3)cc2)c2c(sc(C)c2C)-n2c(C)nnc21 [Example 63] ; condition: DC50 strictly below 400 pM. Does it hold?
1 (yes)

Does the reported DC50 of COC(=O)C[C@@H]1N=C(c2ccc(N3CC[C@@H](C(=O)NCCOc4ccc5oc(C(=O)N[C@H](C(=O)N6C[C@H](O)C[C@H]6C(=O)N[C@@H](C)c6ccc(-c7scnc7C)cc6)C(C)(C)C)cc5c4)C3)cc2)c2c(sc(C)c2C)-n2c(C)nnc21 [Example 67] stay below 400 pM?
0 (no)

Check if DC50 falls below 400 pM for COC(=O)C[C@@H]1N=C(c2ccc(-c3ccc(OCC(=O)N[C@H](C(=O)N4C[C@H](O)C[C@H]4C(=O)NCc4ccc(-c5scnc5C)cc4)C(C)(C)C)cc3)cc2)c2c(sc(C)c2C)-n2c(C)nnc21 [Example 61] .
0 (no)

Please check: DC50 for COC(=O)C[C@@H]1N=C(c2ccc(-c3ccc4c(c3)N(CC(=O)N[C@H](C(=O)N3C[C@H](O)C[C@H]3C(=O)N[C@@H](C)c3ccc(-c5scnc5C)cc3)C(C)(C)C)C(=O)CC4)cc2)c2c(sc(C)c2C)-n2c(C)nnc21 [Example 146] , strictly under 400 pM or not?
0 (no)

Is the reported DC50 for COC(=O)C[C@@H]1N=C(c2ccc(N3CC[C@@H](Oc4ccc5oc(C(=O)N[C@H](C(=O)N6C[C@H](O)C[C@H]6C(=O)N[C@@H](C)c6ccc(-c7scnc7C)cc6)C(C)(C)C)cc5c4)C3)cc2)c2c(sc(C)c2C)-n2c(C)nnc21 [Example 142] strictly below 400 pM?
0 (no)

Is DC50 of COC(=O)C[C@@H]1N=C(c2ccc(-c3ccc(OCC(=O)N[C@H](C(=O)N4C[C@H](O)C[C@H]4C(=O)N[C@@H](C)c4ccc(-c5scnc5C)cc4)C(C)(C)C)c(C(F)(F)F)c3)cc2)c2c(sc(C)c2C)-n2c(C)nnc21 [Example Compound 100] strictly below 400 pM?
1 (yes)

For this compound, is DC50 lower than 400 pM? Cc1ncsc1-c1ccc([C@H](C)NC(=O)[C@@H]2C[C@@H](O)CN2C(=O)[C@@H](NC(=O)COc2ccc(-c3ccc(C4=NC(O)c5nnc(C)n5-c5sc(C)c(C)c54)cc3)cc2)C(C)(C)C)cc1 (stereo partly shown) [Example 30]
0 (no)
